# experimental.target: Cytochrome P450 2D6 (Homo sapiens) (UniProt P10635)
# Sequence (P10635 whole entry, looked up): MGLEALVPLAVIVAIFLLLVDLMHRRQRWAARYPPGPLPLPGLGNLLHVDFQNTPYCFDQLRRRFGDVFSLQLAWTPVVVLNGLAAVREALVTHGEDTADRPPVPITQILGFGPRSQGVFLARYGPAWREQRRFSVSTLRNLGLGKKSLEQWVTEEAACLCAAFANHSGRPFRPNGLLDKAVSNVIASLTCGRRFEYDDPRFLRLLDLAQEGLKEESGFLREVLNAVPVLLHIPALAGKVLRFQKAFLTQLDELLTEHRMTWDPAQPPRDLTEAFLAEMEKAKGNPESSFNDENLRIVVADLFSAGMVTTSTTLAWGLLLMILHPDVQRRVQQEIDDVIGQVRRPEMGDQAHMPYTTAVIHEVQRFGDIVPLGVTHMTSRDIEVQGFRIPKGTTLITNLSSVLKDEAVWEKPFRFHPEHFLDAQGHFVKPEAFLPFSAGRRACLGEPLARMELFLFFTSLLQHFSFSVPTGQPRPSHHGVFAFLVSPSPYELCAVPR
# experiment: Cytochrome P450 family 2 subfamily D member 6 (CYP2D6) small molecule antagonists: luciferase biochemical (cell-free) qHTS assay (AID 1645840); note: nearly all actives have a fitted effect of over 55% in size
# details: P450-Glo CYP2D6 enzyme, luciferin luminescence, 1 h; series mostly up to 57.4 µM
Inconclusive results are not listed. Active and inactive are the calls of the source. Calls come from the whole dose curve; as a rule, active = well fitted inhibition curve with a large enough effect in the repeat runs; inconclusive = weak or mixed curves; inactive = flat fitted curve, though single readings scatter.
Outcome (select one): 1 = active, -1 = inactive

>>> assigned_class("CCN(CC)CCNC(C(=O)OCCC(C)C)c1ccccc1 (stereo unspecified)")
1

In the following, a different molecule is considered.
Request: // return assay outcome for CC(CN(C)C)CN1c2ccccc2CCc2ccccc21 (stereo unspecified)
Result: 1

From: PubChem BioAssay (NCATS)
